These entries and their values trace back to ChEMBL document CHEMBL4765454.

Experiment: Selectivity ratio of EC50 for mouse NIH3T3 cells to EC50 for human A2780 cells
Assay type: toxicity
Details: NIH3T3 cells versus A2780 cells, read-out: Ratio EC50
endpoint: selectivity ratio
// return a plain number; no unit text

[Q] Please look up its selectivity ratio: C=C(C)[C@@H]1CC[C@]2(C(=O)NCc3ccccc3)CC[C@]3(C)[C@H](CC[C@@H]4[C@@]5(C)C[C@H](OC(C)=O)[C@H](OC(C)=O)C(C)(C)[C@@H]5CC[C@]43C)[C@@H]12
[A] 15.8

[Q] I would be grateful if you could share the reported selectivity ratio for CC(=O)O[C@H]1C[C@]2(C)[C@H]3CC[C@@H]4[C@H]5[C@H](C(C)=O)CC[C@]5(C(=O)O)CC[C@@]4(C)[C@]3(C)CC[C@H]2C(C)(C)[C@H]1OC(C)=O .
[A] 0.3

[Q] What selectivity ratio value was documented for this compound, C=C(C)[C@@H]1CC[C@]2(C(=O)NCc3ccccc3)CC[C@]3(C)[C@H](CC[C@@H]4[C@@]5(C)CC[C@H](OC(C)=O)C(C)(C)[C@@H]5CC[C@]43C)[C@@H]12 ?
[A] 4.8

[Q] Look up selectivity ratio: C=C(C)[C@@H]1CC[C@]2(C(=O)Nc3cncc4ccccc34)CC[C@]3(C)[C@H](CC[C@@H]4[C@@]5(C)CC[C@H](OC(C)=O)C(C)(C)[C@@H]5CC[C@]43C)[C@@H]12
[A] 62.5

[Q] Reported selectivity ratio for C=C(C)[C@@H]1CC[C@]2(C(=O)Nc3cncc4ccccc34)CC[C@]3(C)[C@H](CC[C@@H]4[C@@]5(C)C[C@H](OC(C)=O)[C@H](OC(C)=O)C(C)(C)[C@@H]5CC[C@]43C)[C@@H]12 : what is it?
[A] 6.3

====

Test system: A-375
Experiment: Cytotoxicity against human A-375 cells assessed as reduction in cell viability incubated for 72 hrs by SRB assay
Type: functional, cell-based
Conditions: Homo sapiens, A-375, 72 h; read-out: EC50
endpoint: pEC50
Just so you know, pEC50 here is -log10 of the concentration in molar units; reply with that number alone.

[Q] # value lookup — system A-375, readout pEC50, item C=C(C)[C@@H]1CC[C@]2(C(=O)Nc3cncc4ccccc34)CC[C@]3(C)[C@H](CC[C@@H]4[C@@]5(C)CC[C@H](OC(C)=O)C(C)(C)[C@@H]5CC[C@]43C)[C@@H]12
[A] 5.83

[Q] State its pEC50 on A-375: C=C(C)[C@@H]1CC[C@]2(C(=O)Nc3cccc4ncccc34)CC[C@]3(C)[C@H](CC[C@@H]4[C@@]5(C)C[C@H](OC(C)=O)[C@H](OC(C)=O)C(C)(C)[C@@H]5CC[C@]43C)[C@@H]12
[A] 5.54

====

Experiment: Selectivity ratio of EC50 for mouse NIH3T3 cells to EC50 for human HT-29 cells
Format: toxicity
Details: NIH3T3 cells versus HT-29 cells, read-out: Ratio EC50
Can you tell me selectivity ratio for the items I'm about to list?
Write the number on its own, no unit after it.

[Q] # input compound: C=C(C)[C@@H]1CC[C@]2(C(=O)NCc3ccccc3)CC[C@]3(C)[C@H](CC[C@@H]4[C@@]5(C)C[C@H](OC(C)=O)[C@H](OC(C)=O)C(C)(C)[C@@H]5CC[C@]43C)[C@@H]12 ; wanted: its selectivity ratio
[A] 3.4

[Q] I'd like to know its selectivity ratio. The compound in question is CC(=O)O[C@H]1C[C@]2(C)[C@H]3CC[C@@H]4[C@H]5[C@H](C(C)=O)CC[C@]5(C(=O)Nc5cncc6ccccc56)CC[C@@]4(C)[C@]3(C)CC[C@H]2C(C)(C)[C@H]1OC(C)=O
[A] 1.6

[Q] For the compound shown here, C=C(C)[C@@H]1CC[C@]2(C(=O)Nc3cccc4ncccc34)CC[C@]3(C)[C@H](CC[C@@H]4[C@@]5(C)C[C@H](OC(C)=O)[C@H](OC(C)=O)C(C)(C)[C@@H]5CC[C@]43C)[C@@H]12 , give the reported selectivity ratio.
[A] 4

[Q] selectivity ratio lookup needed for C=C(C)[C@@H]1CC[C@]2(C(=O)NCc3ccccc3)CC[C@]3(C)[C@H](CC[C@@H]4[C@@]5(C)CC[C@H](OC(C)=O)C(C)(C)[C@@H]5CC[C@]43C)[C@@H]12 , thanks.
[A] 1

[Q] Can you look up the measured selectivity ratio of C=C(C)[C@@H]1CC[C@]2(C(=O)O)CC[C@]3(C)[C@H](CC[C@@H]4[C@@]5(C)C[C@H](O)[C@H](O)C(C)(C)[C@@H]5CC[C@]43C)[C@@H]12 for me?
[A] 1

[Q] Report selectivity ratio for C=C(C)[C@@H]1CC[C@]2(C(=O)Nc3cncc4ccccc34)CC[C@]3(C)[C@H](CC[C@@H]4[C@@]5(C)C[C@H](OC(C)=O)[C@H](OC(C)=O)C(C)(C)[C@@H]5CC[C@]43C)[C@@H]12 please.
[A] 2

[Q] Can you share its selectivity ratio? I mean this compound: CC(=O)O[C@H]1CC[C@]2(C)[C@H]3CC[C@@H]4[C@H]5[C@H](C(C)=O)CC[C@]5(C(=O)Nc5cncc6ccccc56)CC[C@@]4(C)[C@]3(C)CC[C@H]2C1(C)C
[A] 1

[Q] Can you share its selectivity ratio? I mean this compound: C=C(C)[C@@H]1CC[C@]2(C(=O)Nc3cncc4ccccc34)CC[C@]3(C)[C@H](CC[C@@H]4[C@@]5(C)CC[C@H](OC(C)=O)C(C)(C)[C@@H]5CC[C@]43C)[C@@H]12
[A] 4.5

[Q] // lookup selectivity ratio for CC(=O)O[C@H]1C[C@]2(C)[C@H]3CC[C@@H]4[C@H]5[C@H](C(C)=O)CC[C@]5(C(=O)O)CC[C@@]4(C)[C@]3(C)CC[C@H]2C(C)(C)[C@H]1OC(C)=O
[A] 0.3

[Q] Form field: reported selectivity ratio of C=C(C)[C@@H]1CC[C@]2(C(=O)O)CC[C@]3(C)[C@H](CC[C@@H]4[C@@]5(C)C[C@H](OC(C)=O)[C@H](OC(C)=O)C(C)(C)[C@@H]5CC[C@]43C)[C@@H]12
[A] 0.8

[Q] For the compound shown here, C=C(C)[C@@H]1CC[C@]2(C(=O)O)CC[C@]3(C)[C@H](CC[C@@H]4[C@@]5(C)C=C(O)C(=O)C(C)(C)[C@@H]5CC[C@]43C)[C@@H]12 , give the reported selectivity ratio.
[A] 0.5

[Q] Give the measured selectivity ratio of C=C(C)[C@@H]1CC[C@]2(C(=O)O)CC[C@]3(C)[C@H](CC[C@@H]4[C@@]5(C)CC[C@H](OC(C)=O)C(C)(C)[C@@H]5CC[C@]43C)[C@@H]12 .
[A] 1.4

[Q] Consider the compound CC(=O)O[C@H]1C[C@]2(C)[C@H]3CC[C@@H]4[C@H]5[C@H](C(C)=O)CC[C@]5(C(=O)NCc5ccccc5)CC[C@@]4(C)[C@]3(C)CC[C@H]2C(C)(C)[C@H]1OC(C)=O and give its measured selectivity ratio.
[A] 4.2

[Q] What does the record list as selectivity ratio for CC(=O)O[C@H]1CC[C@]2(C)[C@H]3CC[C@@H]4[C@H]5[C@H](C(C)=O)CC[C@]5(C(=O)Nc5cccc6ncccc56)CC[C@@]4(C)[C@]3(C)CC[C@H]2C1(C)C ?
[A] 1

[Q] What does the record list as selectivity ratio for C=C(C)[C@@H]1CC[C@]2(C(=O)Nc3cccc4ncccc34)CC[C@]3(C)[C@H](CC[C@@H]4[C@@]5(C)CC[C@H](OC(C)=O)C(C)(C)[C@@H]5CC[C@]43C)[C@@H]12 ?
[A] 1
